I'd appreciate it if you could supply growth values for the items below.
Test system: NCI-H460 lung
Assay overview: NCI-60 one-dose screen, 48 h (100 = growth as untreated, 0 = no growth, -100 = all killed)
Measurement setup: 10 µM unless noted
The panel holds about 83,000 compounds, 20% with a hit somewhere; the sample as a whole holds those more often. Calls of active or inactive are those of the source. The calls were made as follows: active = growth percent below 10; inactive = the rest.

- Molecule: "CN([O-])c1nc(N(C)[O-])nc(N2CCOCC2)n1.CN([O-])c1nc(N(C)[OH2+])nc(N2CCOCC2)n1.[Fe+3]"
  Property measured: "growth"
  Result: "36.1% [100 µM] (inactive)"
- Molecule: "Fc1ccc2[nH]cc(-c3nonc3-c3c[nH]c4ccc(Br)cc34)c2c1"
  Property measured: "growth"
  Result: "1.22% (active)"
- Molecule: "Oc1ccc(CN2CCC(N3CCCCC3)CC2)c2cccnc12"
  Property measured: "growth"
  Result: "9.43% (active)"
- Molecule: "S=C1CCSC(=S)N1CCCN1C(=S)CCSC1=S"
  Property measured: "growth"
  Result: "97.7% (inactive)"
- Molecule: "N#CC1=C(c2ccc(Cl)cc2)Nc2c(c(-c3ccc(Cl)cc3)nn2-c2ccccc2)C12C(=O)Nc1ccc(Cl)cc12 (stereo not given)"
  Property measured: "growth"
  Result: "35.5% (inactive)"
- Molecule: "Cc1ccc(Cc2cnc(NC(=O)c3cc(Br)cs3)s2)cc1"
  Property measured: "growth"
  Result: "46.7% (inactive)"
- Molecule: "O=C(OCc1ccc2cccc(O)c2n1)N1CCN(C(=O)c2cc3cc(F)ccc3[nH]2)CC1"
  Property measured: "growth"
  Result: "-47.6% (active)"
- Molecule: "Fc1cccc(CNc2c3ccccc3nc3ccccc23)c1F"
  Property measured: "growth"
  Result: "48% (inactive)"

Go through the items and report each one's growth.
1. CC(=O)Cc1nsc(NC(=O)c2cc(-c3cc(Cl)cc(Cl)c3)oc2C)n1
2. CCCCCCCCCCCCCCCCCCOc1ccccc1CC(=O)NCC[N+]1(C)CCCC1

-- reply
1. 103% (inactive)
2. 34.8% (inactive)

* * *

Test system: OVCAR-3 ovarian
Assay overview: NCI-60 one-dose screen, 48 h
Measurement setup: 10 µM unless noted
Compounds without any hit were thinned out: in the full panel of roughly 83,000, 20% have a hit. Active and inactive are the calls of the source. Rule for the calls: active = growth percent below 10; inactive = the rest.
Reply using exactly one outcome from active, inactive

- Compound: "Cc1c(-c2nc3ccc(F)cc3c(=O)[nH]2)c2ccccc2n1C"
  Label value: "inactive"
- Compound: "COc1ccc(-c2nc(SCC(C)C)nc(N/N=C\\c3ccc(F)cc3)c2C#N)cc1"
  Label value: "inactive"
- Compound: "Cc1nn(-c2ccccc2)c(Oc2ccccn2)c1-c1nc2ccccc2s1"
  Label value: "inactive"
- Compound: "C=C1C(=O)O[C@H]2[C@H]1CC/C(COC(=O)NCc1cc[nH]c1)=C\\CC[C@@]1(C)O[C@@H]21"
  Label value: "inactive"
- Compound: "N#Cc1nn(-c2cc(=O)[nH]c3ccc(Cl)cc23)c(N)c1C#N"
  Label value: "inactive"
- Compound: "CC(C)CCC[C@@H](C)[C@H]1CC[C@H]2[C@@H]3CC=C4C[C@@H](C(C(=O)O)C(=O)O)CC[C@]4(C)[C@H]3CC[C@]12C"
  Label value: "active"

-- ask Lab log entry: `O=C(CSc1nc(-c2ccccc2)[nH]c1S(=O)(=O)c1ccccc1)NC1CC1` — outcome as called in the assay?
-- reply inactive

-- ask State the result this test recorded for `O=C1Nc2ccccc2/C1=C\c1nc(-c2ccccc2F)n2ccccc12` .
-- reply active

-- ask In this assay, the call recorded for `CCOC(=O)c1c(NC(=O)c2ccc(C(C)C)cc2)sc2c(CN(C)C)c(O)ccc12` was what?
-- reply inactive

-- ask For `CCN(C(=O)N1CCN(c2cc3c(cc2F)c(=O)c(C(=O)O)cn3C2CC2)CC1)c1nc(-c2ccc(Cl)cc2)cs1` , which call appears in the assay record?
-- reply inactive

-- ask Hi, sorry to bother you, what did the test record for Cc1ccc(C2=Nc3c(N)ncnc3NC(c3ccc4c(c3)OCO4)C2)cc1 (centres undefined) ?
-- reply inactive

-- ask What did this assay record as the result for `O=S(=O)(NCCNc1nccc(-c2c(-c3cccc(F)c3)nc3occn23)n1)c1ccc(Br)cc1` ?
-- reply inactive

-- ask Recorded test outcome, item `O=Nc1c(-c2c(O)[nH]c3ncccc23)[nH]c2ccccc12`
-- reply inactive

-- ask How did this test come out for `COc1ccc(NC(=O)c2sc3nc(C)c(C(=O)/C=C/c4cccc(OC)c4)cc3c2N)cc1` ?
-- reply active

-- ask Dear colleague, could you share the recorded outcome for `N#Cc1c(N)nnn1Cc1cc(=O)oc2c1ccc1ccccc12` when you have a moment?
-- reply inactive

-- ask I'd appreciate the recorded outcome for `O=C(OCc1ccc2c(Cl)cc(Cl)c(O)c2n1)n1cncn1` from this test.
-- reply inactive

-- ask For `O=[N+]([O-])c1ccc(S(=O)(=O)N2CCN(C3=NS(=O)(=O)c4ccccc4N3c3ccccc3)CC2)cc1` , which call appears in the assay record?
-- reply inactive

-- ask Hey, what did the test say about `CCn1c(=S)sc2c(Nc3ccc(F)cc3)nc(-c3cccnc3)nc21` ?
-- reply inactive

-- ask Which result was noted for this compound in the test: `O=C1/C(=C/c2ccc(-c3ccc(Br)cc3)o2)SC(=S)N1CCc1ccc(O)cc1`
-- reply inactive

* * *

Test system: ACHN renal
Assay overview: NCI-60 one-dose screen, 48 h
Measurement setup: 10 µM unless noted
Compounds without any hit were thinned out: in the full panel of roughly 83,000, 20% have a hit. Active and inactive are the calls of the source. How the source made its calls: active means growth percent below 10; inactive means the rest.
Respond with a class label; see 1 (yes) (active), 0 (no) (inactive)

- Compound: "O=C(c1ccc(-c2ccccc2)cc1)c1ccc([N+](=O)[O-])cc1"
  Label value: "0 (no)"

-- ask Which outcome was assigned to `Cc1cc2c(O)c(-c3cccc(Cl)c3)c3sc(=O)oc3c2cc1C` in this test?
-- reply 0 (no)

-- ask Hi, do you know how `COC(=O)c1c2c(c(C)[n+]([O-])c1C)C(=O)C=C(NCc1ccc(Br)cc1)C2=O` came out in this test?
-- reply 1 (yes)

-- ask Entry `N#Cc1c(-c2ccc(Cl)cc2)nc(NN=Cc2cccc(O)c2)nc1N1CCOCC1` : call = ?
-- reply 0 (no)

-- ask Please state the recorded outcome for this compound: Nc1ncnc2c1N=C(c1ccc(Cl)cc1)CC(c1ccc3c(c1)OCO3)N2 (stereo not given)
-- reply 0 (no)

-- ask Hey, what did the test say about `CC(C)(C)[Si](C)(C)O[C@H]1C(=O)C=CN2CC=C[C@@H]12` ?
-- reply 0 (no)

-- ask Which result was noted for this compound in the test: `CCCCC(=O)Nc1ncc(Cc2ccc(Cl)cc2)s1`
-- reply 0 (no)

-- ask Could you check what this test reported for `NC(=O)c1c(NC(=O)c2ccccc2)sc2c1CCC(=O)C2` ?
-- reply 1 (yes)

-- ask Which outcome was assigned to `CCN(CC)C(=S)SC(SC(=S)N(CC)CC)C(=O)c1nnn(-c2ccc([N+](=O)[O-])cc2)c1C` in this test?
-- reply 0 (no)

-- ask Field: outcome | Entry: `Cc1ccc(Cc2cnc(NC(=O)c3cc(Br)cs3)s2)cc1`
-- reply 0 (no)

-- ask How did this test come out for `CC(C)(C)n1cc(-c2ccnc(NCCCNS(=O)(=O)c3ccc(F)cc3)c2)c(-c2cccc(F)c2)n1` ?
-- reply 0 (no)

-- ask Can you look up the reported call for `COc1cc2c(c(OC)c1OC)-c1ccc(OC)c(=O)cc1[C@@H](NC(=O)CCl)CC2` for me?
-- reply 0 (no)

-- ask Returns: the outcome recorded for Nc1ncnc2c1N=C(c1ccc3c(c1)OCO3)CC(c1cccc(Nc3ccnc4cc(Cl)ccc34)c1)N2 (stereo not given) in this assay.
-- reply 0 (no)

* * *

Would you kindly list growth for each of these compounds?
System: CAKI-1 renal
Assay overview: NCI-60 one-dose screen, 48 h (100 = growth as untreated, 0 = no growth, -100 = all killed)
Measurement setup: 10 µM unless noted
This is part of a sample that, as a whole, favours compounds with a hit. Of some 83,000 tested, about 20% had one in any assay. Activity calls are given as the source filed them. The calls were made as follows: active = growth percent below 10; inactive = the rest.

- Compound: "Cc1cc2c([nH]1)CSc1cc(S(=O)(=O)c3ccccc3)c(=O)[nH]c1-2"
  growth: "6.96% [100 µM] (active)"
- Compound: "CCN(CC)CCNC(=O)c1cn2ncnc(Oc3ccc(NC(=O)Nc4ccc(Cl)c(C(F)(F)F)c4)c(F)c3)c2c1C"
  growth: "39.6% (inactive)"
- Compound: "CCCCCCNC(=O)Oc1ccc(/C(=C(/C)Cc2ccc(OC)cc2)c2ccc(OCCCN(C)C)cc2)cc1"
  growth: "44.5% (inactive)"
- Compound: "Cc1cc2c(O)c(-c3cc(Cl)ccc3Cl)c3sc(=O)oc3c2cc1C"
  growth: "53.9% (inactive)"

Provide reported growth for each item, in the same order as listed.
1. COc1ccc2[nH]cc(-c3nc(-c4cn(C)c5c(Cl)nccc45)cs3)c2c1
2. COC(=O)[C@H]1CCCN1C[C@@H](O)CN1C(=O)/C(=C\c2cc(OC)c(OC)c(OC)c2)c2ccccc21
3. CSc1nnc(-c2cnn3c2NC(c2ccccc2)C3)n1-c1ccc(C(F)(F)F)cc1 (centres undefined)
4. CCOC(=O)c1cn2ncnc(Oc3ccc(NC(=O)NC4CCCCC4)c(Cl)c3)c2c1C
5. Cc1ccc(-c2nc3nc(-c4ccccc4)nc(N4CCNCC4)c3o2)cc1

-- reply
60.2% (inactive)
93.1% (inactive)
32% (inactive)
85% (inactive)
-99% (active)
